Target or test system: hERG (Homo sapiens)
Sequence (Q12809 whole entry): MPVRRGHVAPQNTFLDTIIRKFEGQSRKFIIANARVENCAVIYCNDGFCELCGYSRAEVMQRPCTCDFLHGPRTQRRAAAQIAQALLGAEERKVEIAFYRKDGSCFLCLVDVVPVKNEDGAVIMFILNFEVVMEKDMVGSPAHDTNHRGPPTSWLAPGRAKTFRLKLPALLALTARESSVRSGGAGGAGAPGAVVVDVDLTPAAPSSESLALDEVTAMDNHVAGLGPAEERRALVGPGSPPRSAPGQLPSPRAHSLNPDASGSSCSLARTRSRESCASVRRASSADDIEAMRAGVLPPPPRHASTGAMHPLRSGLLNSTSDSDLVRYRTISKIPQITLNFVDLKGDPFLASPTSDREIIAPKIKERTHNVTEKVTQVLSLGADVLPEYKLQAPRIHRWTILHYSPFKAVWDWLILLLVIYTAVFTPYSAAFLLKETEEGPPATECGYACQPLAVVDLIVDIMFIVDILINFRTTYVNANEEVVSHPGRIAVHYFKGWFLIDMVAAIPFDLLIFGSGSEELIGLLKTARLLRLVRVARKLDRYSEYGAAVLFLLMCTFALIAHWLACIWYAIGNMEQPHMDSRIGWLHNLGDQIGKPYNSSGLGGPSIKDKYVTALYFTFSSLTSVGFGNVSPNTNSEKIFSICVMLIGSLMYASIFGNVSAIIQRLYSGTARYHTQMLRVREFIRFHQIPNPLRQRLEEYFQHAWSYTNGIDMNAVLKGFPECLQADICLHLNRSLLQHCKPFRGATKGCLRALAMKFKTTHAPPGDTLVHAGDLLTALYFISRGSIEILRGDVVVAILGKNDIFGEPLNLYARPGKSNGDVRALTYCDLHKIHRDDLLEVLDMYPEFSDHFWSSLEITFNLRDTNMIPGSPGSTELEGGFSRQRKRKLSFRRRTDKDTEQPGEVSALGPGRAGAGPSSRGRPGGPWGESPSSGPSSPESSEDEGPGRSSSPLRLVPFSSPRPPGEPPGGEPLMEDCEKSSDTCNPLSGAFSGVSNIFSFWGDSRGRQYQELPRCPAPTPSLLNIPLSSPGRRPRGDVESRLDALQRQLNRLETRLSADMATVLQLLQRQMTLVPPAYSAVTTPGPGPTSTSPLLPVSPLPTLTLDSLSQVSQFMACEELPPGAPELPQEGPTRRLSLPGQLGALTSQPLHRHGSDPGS
Assay info: in vitro
Measurement conditions: human
Measured endpoint: inhibition at 3 μmol/L (%)
Return type: number; implicit unit %.

Would you kindly share the measured inhibition at 3 μmol/L for `C#C[C@@](C)(O)COc1cc(-c2ccc(N3CC4CC(C3)N4Cc3ccc(OC)nc3)nc2)c2c(C#N)cnn2c1` ?
12.7

###

Assay info: Balb/C mouse pharmacokinetics, oral 5 mg/kg
Type: in vivo, Balb/C mice
Measurement conditions: male, p.o. 5 mg/kg, plasma, read-out: Curve area AUC0-t
Measured endpoint: AUC(0-t) (ng·h/mL)
Numeric only. Scale: ng·h/mL

Would you mind telling me what AUC(0-t) value was observed for COc1ncc(CN2C3CC2CN(c2ccc(-c4cc(OCC5(C#N)CCOCC5)cn5ncc(C#N)c45)cn2)C3)cc1F [Embodiment 60] ?
28000

Please do the same for C#C[C@](C)(O)COc1cc(-c2ccc(N3CC4CC(C3)N4Cc3cnc(OC)c(F)c3)nc2)c2c(C#N)cnn2c1 [Embodiment 65] as well.
20200

Now consider COc1ccc(CN2C3CC2CN(c2ccc(-c4cc(OCC5(C#N)CCC5)cn5ncc(C#N)c45)cn2)C3)cn1 [Embodiment 36] and answer again.
6210

###

Let's go through some recorded IC50 values for RET kinase (Homo sapiens, UniProt P07949) together.
Answer with a number only, understood to be in nM.

Some solved entries appear below for comparison.
COc1ccc(CN2C3CC2CN(c2ccc(-c4cc(C#CC(C)(C)N)cn5ncc(C#N)c45)cn2)C3)cn1 [Embodiment 17] | 0.39
COc1ccc(CN2C3CC2CN(c2ccc(-c4cc(N5CCC(C)(O)C5)cn5ncc(C#N)c45)cn2)C3)cn1 (stereo not drawn) [Embodiment 34] | 0.7
COc1ccc(CN2C3CC2CN(c2ccc(-c4cc(OCC5CCS(=N)(=O)CC5)cn5ncc(C#N)c45)cn2)C3)cn1 (stereo not drawn) [Embodiment 54] | 0.34
COc1ccc(CN2C3CC2CN(c2ccc(-c4cc(OCCCS(C)(=N)=O)cn5ncc(C#N)c45)cn2)C3)cn1 (stereo not drawn) [Embodiment 6] | 0.79

Please look at the following compound next.
For the compound shown here, CC1(NC(=O)c2ncccc2Cl)CCN(c2ccc(-c3cc(OCC4(N)CC4)cn4ncc(C#N)c34)cn2)CC1 [Embodiment 91] , give the reported IC50.
1.54

###

Below: a set of entries, each annotated with reported IC50.
Target or test system: RET kinase (Homo sapiens, UniProt P07949)
Sequence (P07949 29-1114): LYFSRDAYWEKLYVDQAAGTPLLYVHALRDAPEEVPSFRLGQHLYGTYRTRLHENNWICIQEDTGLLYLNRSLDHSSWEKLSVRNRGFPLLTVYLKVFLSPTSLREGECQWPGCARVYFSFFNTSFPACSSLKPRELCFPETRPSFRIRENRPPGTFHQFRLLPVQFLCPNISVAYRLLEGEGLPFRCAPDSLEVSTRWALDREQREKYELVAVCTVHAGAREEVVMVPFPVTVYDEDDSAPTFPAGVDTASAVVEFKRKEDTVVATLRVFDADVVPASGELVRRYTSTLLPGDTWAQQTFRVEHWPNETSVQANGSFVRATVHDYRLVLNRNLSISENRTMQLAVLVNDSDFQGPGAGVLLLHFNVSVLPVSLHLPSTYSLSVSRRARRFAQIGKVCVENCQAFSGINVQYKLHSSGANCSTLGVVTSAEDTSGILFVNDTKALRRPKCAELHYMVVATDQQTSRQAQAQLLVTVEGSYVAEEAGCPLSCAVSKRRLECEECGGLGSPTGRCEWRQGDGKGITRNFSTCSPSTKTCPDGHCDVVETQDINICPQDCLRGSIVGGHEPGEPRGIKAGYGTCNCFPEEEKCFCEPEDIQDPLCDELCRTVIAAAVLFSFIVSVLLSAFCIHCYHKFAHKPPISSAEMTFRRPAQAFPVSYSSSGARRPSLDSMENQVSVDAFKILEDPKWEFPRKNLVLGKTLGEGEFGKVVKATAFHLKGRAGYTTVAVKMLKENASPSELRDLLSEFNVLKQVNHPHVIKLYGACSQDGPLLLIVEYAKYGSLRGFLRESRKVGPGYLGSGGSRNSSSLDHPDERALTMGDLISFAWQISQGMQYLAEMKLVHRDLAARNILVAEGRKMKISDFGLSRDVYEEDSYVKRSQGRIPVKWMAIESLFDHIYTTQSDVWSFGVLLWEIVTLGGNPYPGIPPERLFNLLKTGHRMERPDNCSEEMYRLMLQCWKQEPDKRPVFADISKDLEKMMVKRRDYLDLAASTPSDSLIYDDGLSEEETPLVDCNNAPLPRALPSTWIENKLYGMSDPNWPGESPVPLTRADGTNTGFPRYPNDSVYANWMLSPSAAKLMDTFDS
Just the number please, in nM, no unit attached.

Check out these entries, answers already filled in.
COc1ccc(CN2C3CC2CN(c2ccc(-c4cc(N5CCC(C)(O)CC5)cn5ncc(C#N)c45)cn2)C3)cn1 [Embodiment 35] | 0.49
COc1ccc(CN2C3CC2CN(c2ccc(-c4cc(N5CC(C)(O)C5)cn5ncc(C#N)c45)cn2)C3)cn1 [Embodiment 33] | 0.4
COc1ccc(CN2C3CC2CN(c2ccc(-c4cc(OCC5(C#N)COC5)cn5ncc(C#N)c45)cn2)C3)cn1 [Embodiment 37] | 0.71
CC1(NC(=O)c2ncccc2Cl)CCN(c2ccc(-c3cc(N4CC(C(C)(C)O)C4)cn4ncc(C#N)c34)cn2)CC1 [Embodiment 88] | 1.2
COc1ccc(CN2C3CC2CN(c2ccc(-c4cc(OCC56CC(C(N)=O)(C5)C6)cn5ncc(C#N)c45)cn2)C3)cn1 [Embodiment 66] | 0.25
COc1ccc(CN2C3CC2CN(c2ccc(-c4cc(N5CC(C(C)(C)O)C5)cn5ncc(C#N)c45)cn2)C3)cn1 [Embodiment 7] | 0.69
COc1ncc(CN2C3CC2CN(c2ccc(-c4cc(C#C[C@@H](C)O)cn5ncc(C#N)c45)cn2)C3)cc1F [Embodiment 68] | 0.44
COc1ccc(CN2C3CC2CN(c2ccc(-c4cc(N5CC6(C5)CC(C)(O)C6)cn5ncc(C#N)c45)cn2)C3)cn1 [Embodiment 32] | 0.49
CC1(NC(=O)c2ncccc2Cl)CCN(c2ccc(-c3cc(OCC4(C#N)CC4)cn4ncc(C#N)c34)cn2)CC1 [Embodiment 92] | 0.85
COc1ncc(CN2C3CC2CN(c2ccc(-c4cc(N5CC(C(C)(C)O)C5)cn5ncc(C#N)c45)cn2)C3)cc1F [Embodiment 31] | 0.75

Query: IC50; subject: COc1ccc(CN2C3CC2CN(c2ccc(-c4cc(OCC56CC(O)(C5)C6)cn5ncc(C#N)c45)cn2)C3)cn1 [Embodiment 47]
0.4

Would you kindly repeat that for COc1ccc(CN2C3CC2CN(c2ccc(-c4cc(C#CC(C)(C)O)cn5ncc(C#N)c45)cn2)C3)cn1 [Embodiment 8] ?
0.48

Please give the result for COc1ccc(CN2C3CC2CN(c2ccc(-c4cc(OCC5CS(=N)(=O)C5)cn5ncc(C#N)c45)cn2)C3)cn1 (centres unmarked) [Embodiment 12] too.
1.3

Same question, COc1ccc(CN2C3CC2CN(c2ccc(-c4cc(NC(=O)C(C)(C)O)cn5ncc(C#N)c45)cn2)C3)cn1 [Embodiment 42] this time
1.56

###

Assay info: Thermodynamic solubility in different media at 37° C.
Type: physicochemical
Measurement conditions: USP buffer pH 2, simulated gastric fluid, thermodynamic from solid, pH 2, 37° C., read-out: Solubility of crystal form I
Measured endpoint: solubility at 4 h

Please give the measured solubility at 4 h for this compound: C#C[C@@](C)(O)COc1cc(-c2ccc(N3CC4CC(C3)N4Cc3ccc(OC)nc3)nc2)c2c(C#N)cnn2c1 [crystal form I]
> 2000 µg/mL

###

Assay info: Thermodynamic solubility in different media at 37° C.
Assay type: physicochemical
Measurement conditions: USP buffer pH 3, aqueous buffer, thermodynamic from solid, pH 3, 37° C., read-out: Solubility of crystal form I
Measured endpoint: solubility at 4 h (µg/mL)
Lab book: enter the figure in µg/mL, no units written.

Which solubility at 4 h is listed for C#C[C@@](C)(O)COc1cc(-c2ccc(N3CC4CC(C3)N4Cc3ccc(OC)nc3)nc2)c2c(C#N)cnn2c1 [crystal form I] ?
710

###

Quick record: pIC50, RET kinase (Homo sapiens).
Just so you know, pIC50 here is -log10 of the concentration in molar units; reply with that number alone.

COc1ccc(CN2C3CC2CN(c2ccc(-c4cc(OCC5(C#N)CC5)cn5ncc(C#N)c45)cn2)C3)cn1 | 9.49
COc1ncc(CN2C3CC2CN(c2ccc(-c4cc(OCC5(C#N)CC5)cn5ncc(C#N)c45)cn2)C3)cc1F | 9.51
COc1ccc(CN2C3CC2CN(c2ccc(-c4cc(C#CCC(C)(C)O)cn5ncc(C#N)c45)cn2)C3)cn1 | 9.38
[2H]C([2H])([2H])Oc1ccc(CN2C3CC2CN(c2ccc(-c4cc(N5CC(C(C)(C)O)C5)cn5ncc(C#N)c45)cn2)C3)cn1 | 9.40

Which pIC50 is listed for `COc1ccc(CN2C3CC2CN(c2ccc(-c4cc(C#C[C@H](C)O)cn5ncc(C#N)c45)cn2)C3)cn1` ?
9.39

Moving on to the next compound: `CNC(=O)C12CC(COc3cc(-c4ccc(N5CC6CC(C5)N6Cc5ccc(OC)nc5)nc4)c4c(C#N)cnn4c3)(C1)C2`
9.60

Do the same for `COc1ccc(CN2C3CC2CN(c2ccc(-c4cc(C#C[C@@H](C)O)cn5ncc(C#N)c45)cn2)C3)cn1` please
9.49

###

Target or system UniProtKB P07949; recorded quantity IC50.
Number in nM, nothing else.

Previously resolved entries follow.
COc1ccc(CN2C3CC2CN(c2ccc(-c4cc(OCC5(C#N)CCC5)cn5ncc(C#N)c45)cn2)C3)cn1 [Embodiment 36] | 0.83
COc1ccc(CN2C3CC2CN(c2ccc(-c4cc(OCC5(C#N)CCOCC5)cn5ncc(C#N)c45)cn2)C3)cn1 [Embodiment 59] | 0.58
COc1ccc(CN2C3CC2CN(c2ccc(-c4cc(N5CC(C)(C#N)C5)cn5ncc(C#N)c45)cn2)C3)cn1 [Embodiment 77] | 0.37
COc1ccc(CN2C3CC2CN(c2ccc(-c4cc(OCC(C)(C)C#N)cn5ncc(C#N)c45)cn2)C3)cn1 [Embodiment 9] | 0.76
COc1ccc(CN2C3CC2CN(c2ccc(-c4cc(NC(=O)C5(C#N)CC5)cn5ncc(C#N)c45)cn2)C3)cn1 [Embodiment 74] | 1.8
C#CC(C)(O)COc1cc(-c2ccc(N3CC4CC(C3)N4Cc3ccc(OC)nc3)nc2)c2c(C#N)cnn2c1 (stereo not shown) [Embodiment 62] | 0.48

We now examine a further compound.
IC50 for C#C[C@](C)(O)COc1cc(-c2ccc(N3CC4CC(C3)N4Cc3cnc(OC)c(F)c3)nc2)c2c(C#N)cnn2c1 [Embodiment 65] ?
0.33

###

Overview of reported pIC50 across a group of molecules:
Target or test system: RET V804M (Homo sapiens, UniProt P07949, V804M)
Sequence (P07949 29-1114 V804M): as the sequence (P07949 29-1114) above, with V776M counted along it
Assay info: HTRF kinase activity inhibition, RET V804M
Measurement conditions: ATP at Km
The meaning of pIC50 here: minus log10 of the concentration in molar units.

In the examples that follow, each entry is paired with its recorded pIC50.
COc1ncc(CN2C3CC2CN(c2ccc(-c4cc(C#CC(C)(C)O)cn5ncc(C#N)c45)cn2)C3)cc1F [Embodiment 18] | 8.74
COc1ccc(CN2C3CC2CN(c2ccc(-c4cc(N5CC(C)(C#N)C5)cn5ncc(C#N)c45)cn2)C3)cn1 [Embodiment 77] | 9.22
CC1(NC(=O)c2ncccc2Cl)CCN(c2ccc(-c3cc(C#CC4(O)COC4)cn4ncc(C#N)c34)cn2)CC1 [Embodiment 97] | 8.96
C#C[C@](C)(O)COc1cc(-c2ccc(N3CC4CC(C3)N4Cc3ccc(OC)nc3)nc2)c2c(C#N)cnn2c1 [Embodiment 64] | 8.52

From here, focus on the item given below.
Tell me the measured pIC50 of C#C[C@@](C)(O)COc1cc(-c2ccc(N3CC4CC(C3)N4Cc3ccc(OC)nc3)nc2)c2c(C#N)cnn2c1 [Embodiment 63] , please.
9.22
